experimental system: HLA-B*15:17
procedure summary: IEDB peptide-MHC binding, purified MHC/competitive/fluorescence; filed as Kd, often an IC50 or EC50 that approximates it; bounds were set here for any values at or beyond the usual limits of such assays
experimental context: source organism: Cryptosporidium parvum Iowa II
measurement kind: Kd

What value of Kd has been reported for the following sequence? SGLPGIFIV
≥ 20 µM

###

experimental system: HLA-B*08:02
procedure summary: IEDB peptide-MHC binding, purified MHC/direct/fluorescence; filed as Kd, often an IC50 or EC50 that approximates it; bounds were set here for any values at or beyond the usual limits of such assays
experimental context: source organism: Mycobacterium tuberculosis str. Haarlem
measurement kind: Kd (µM)
# unit: µM | format: bare number

Need Kd of RPRVAQLTF , thanks.
3.86

###

experimental system: HLA-A*24:02
procedure summary: IEDB peptide-MHC binding, purified MHC/competitive/radioactivity; filed as Kd, often an IC50 or EC50 that approximates it; bounds were set here for any values at or beyond the usual limits of such assays
experimental context: source organism: Dengue virus 3 Singapore/8120/1995
measurement kind: pKd
When answering, recall that pKd equals minus log10 of the concentration in mol/L, and write that number alone.

Need pKd of LFSGVSWIM , thanks.
6.85

###

experimental system: HLA-B*40:01
procedure summary: IEDB peptide-MHC binding, purified MHC/direct/fluorescence; filed as Kd, often an IC50 or EC50 that approximates it; bounds were set here for any values at or beyond the usual limits of such assays
experimental context: source organism: Campylobacter jejuni RM1221
measurement kind: Kd

Hi! What's the reported Kd for IYDYLRLLY on HLA-B*40:01?
≥ 20 µM

###

experimental system: HLA-B*57:01
procedure summary: IEDB peptide-MHC binding, purified MHC/direct/fluorescence; filed as Kd, often an IC50 or EC50 that approximates it; bounds were set here for any values at or beyond the usual limits of such assays
experimental context: source organism: Mycobacterium tuberculosis
pKd: −log10 of the molar value.
Kindly supply the reported pKd values for the records listed here.

Field: pKd (HLA-B*57:01). Entry: RPRVAQLTF
6.06

Same again, this time with KPKLARGEL
≤ 4.70

Same for RPKPDYSAM
≤ 4.70

###

experimental system: HLA-A*68:02
procedure summary: IEDB peptide-MHC binding, purified MHC/direct/fluorescence; filed as Kd, often an IC50 or EC50 that approximates it; bounds were set here for any values at or beyond the usual limits of such assays
experimental context: source organism: Burkholderia mallei ATCC 23344
measurement kind: Kd

What Kd value was documented for this sequence, NVMDPMHGA ?
≤ 1 nM

###

experimental system: HLA-A*02:01
procedure summary: IEDB peptide-MHC binding, purified MHC/competitive/fluorescence; filed as Kd, often an IC50 or EC50 that approximates it; bounds were set here for any values at or beyond the usual limits of such assays
experimental context: source organism: Influenza A virus (A/swine/Italy/2/1979(H1N1))
measurement kind: Kd (nM)
# number only, unit nM dropped from output

Give its Kd value. Item: RMIGGIGRFYI
0.3

###

experimental system: HLA-A*02:06
procedure summary: IEDB peptide-MHC binding, purified MHC/competitive/radioactivity; filed as Kd, often an IC50 or EC50 that approximates it; bounds were set here for any values at or beyond the usual limits of such assays
experimental context: source organism: Dengue virus 1 Brazil/97-11/1997
measurement kind: pKd
Units for pKd: none; it is -log10 of a concentration expressed in mol/L.

Which measured pKd value corresponds to TMLLMLLPTA ?
8.59

Please answer likewise for LTMKEKSWLV
7.13

Could you do the same for SVSGDLILEI , please?
7.05

Next: PQDNQLAYV
6.78

###

experimental system: HLA-B*51:01
procedure summary: IEDB peptide-MHC binding, purified MHC/competitive/fluorescence; filed as Kd, often an IC50 or EC50 that approximates it; bounds were set here for any values at or beyond the usual limits of such assays
experimental context: source organism: Campylobacter jejuni subsp. jejuni NCTC 11168 = ATCC 700819
measurement kind: Kd

For AVGFFPTGV , what is its reported Kd?
≥ 20 µM

###

experimental system: HLA-B*27:03
procedure summary: IEDB peptide-MHC binding, purified MHC/competitive/fluorescence; filed as Kd, often an IC50 or EC50 that approximates it; bounds were set here for any values at or beyond the usual limits of such assays
experimental context: source organism: Escherichia coli HS
measurement kind: Kd

State the recorded Kd for this entry: ISLWGSLLK
≥ 20 µM

###

experimental system: HLA-A*69:01
procedure summary: IEDB peptide-MHC binding, purified MHC/competitive/fluorescence; filed as Kd, often an IC50 or EC50 that approximates it; bounds were set here for any values at or beyond the usual limits of such assays
experimental context: source organism: Escherichia coli HS
pKd: −log10 of the molar value.
measurement kind: pKd

Sample ISLWGSLLK — what was its pKd?
≤ 4.70

###

experimental system: HLA-B*39:01
procedure summary: IEDB peptide-MHC binding, purified MHC/competitive/fluorescence; filed as Kd, often an IC50 or EC50 that approximates it; bounds were set here for any values at or beyond the usual limits of such assays
experimental context: source organism: Escherichia coli HS
measurement kind: Kd

Which measured Kd value corresponds to ISLWGSLLK ?
≥ 20 µM

###

experimental system: HLA-A*26:03
procedure summary: IEDB peptide-MHC binding, purified MHC/direct/fluorescence; filed as Kd, often an IC50 or EC50 that approximates it; bounds were set here for any values at or beyond the usual limits of such assays
experimental context: source organism: Campylobacter jejuni subsp. jejuni CG8486
measurement kind: Kd

What value of Kd has been recorded for this entry: WFGHLASDW
≥ 20 µM

###

experimental system: HLA-B*58:01
procedure summary: IEDB peptide-MHC binding, purified MHC/competitive/radioactivity; filed as Kd, often an IC50 or EC50 that approximates it; bounds were set here for any values at or beyond the usual limits of such assays
experimental context: source organism: Dengue virus 2 Jamaica/1409/1983
Provide the recorded pKd for the entries that follow.
On this scale, pKd is minus log10 of a concentration expressed in M (mol/L).

Reported pKd for HLA-B*58:01, given TSSQQKADWI ?
5.97

Quick one: FGSLGGVFTS
5.27

Try KASFIEVKSC next.
6.43

###

experimental system: HLA-B*18:01
procedure summary: IEDB peptide-MHC binding, purified MHC/direct/fluorescence; filed as Kd, often an IC50 or EC50 that approximates it; bounds were set here for any values at or beyond the usual limits of such assays
experimental context: source organism: Mycobacterium avium 104
measurement kind: Kd

Entry VRDVVMPAL has what Kd?
≥ 20 µM

###

experimental system: HLA-A*02:19
procedure summary: IEDB peptide-MHC binding, purified MHC/competitive/fluorescence; filed as Kd, often an IC50 or EC50 that approximates it; bounds were set here for any values at or beyond the usual limits of such assays
experimental context: source organism: Cryptosporidium parvum Iowa II
measurement kind: Kd

Could you share which Kd value was measured for SGLPGIFIV ?
≥ 20 µM

###

experimental system: HLA-A*02:06
procedure summary: IEDB peptide-MHC binding, purified MHC/competitive/radioactivity; filed as Kd, often an IC50 or EC50 that approximates it; bounds were set here for any values at or beyond the usual limits of such assays
experimental context: source organism: SARS coronavirus Tor2
measurement kind: log10(Kd) (log10 of the value in nM)
// do not treat as linear: log10 of Kd, unit nM

If you can, please state the reported log10(Kd) value of IMQVFFGYFA .
1.71

Next entry: WLVIGVAFL
2.26

Try the sequence FQFICNLLLL
-0.06

And the next one, GALDVSASV ?
0.36

// same read-out, input: VMYASALVLL
1.62

# repeat for FMRFFTLGSI
2.29

Try AIAACAMLLV next.
1.89

Could you do the same for YLVQQESSFV , please?
2.59

And the next one, KLFTIAMWLL ?
2.42

###

experimental system: HLA-A*02:01
procedure summary: IEDB peptide-MHC binding, purified MHC/direct/fluorescence; filed as Kd, often an IC50 or EC50 that approximates it; bounds were set here for any values at or beyond the usual limits of such assays
experimental context: source organism: Mycobacterium tuberculosis
measurement kind: Kd

Provide value of Kd for this record tested with HLA-A*02:01: RPKPDYSAM
≥ 20 µM

Try the sequence KPKLARGEL
≥ 20 µM

Ok, now RPRVAQLTF
≥ 20 µM

###

experimental system: HLA-A*29:02
procedure summary: IEDB peptide-MHC binding, purified MHC/direct/fluorescence; filed as Kd, often an IC50 or EC50 that approximates it; bounds were set here for any values at or beyond the usual limits of such assays
experimental context: source organism: Orthohantavirus andesense
measurement kind: Kd

Consider the sequence TRDHVNLVL and give its measured Kd.
≥ 20 µM

###

experimental system: HLA-A*03:01
procedure summary: IEDB peptide-MHC binding, purified MHC/competitive/radioactivity; filed as Kd, often an IC50 or EC50 that approximates it; bounds were set here for any values at or beyond the usual limits of such assays
experimental context: source organism: Mammarenavirus brazilense
Exercise: for every item that follows, state its recorded pKd.
# log scale: pKd equals minus log10 of the concentration in mol/L

Give pKd (HLA-A*03:01) of the following sequence: RALKYDFNH
5.24

Try this sequence too: STYYVHENK
8.29

Origin of measurements: the Immune Epitope Database (IEDB)
